src = patent US20240239894A1

- Tested on: T1, Human B7H4 ECD (SV), splice variant, 10His_FLAG (human)
- T1 construct: also called B7-H4-SV
- Assay name: Octet BLI, hIgG1 on Protein G (n = 1)
Reported metric: kon (M⁻¹ s⁻¹)
Please reply with the bare figure in M⁻¹ s⁻¹ and do not write the unit itself.

Quote kon reported for ZY0EQD-E02 human IgG1 (antibody, V domains shown) VH: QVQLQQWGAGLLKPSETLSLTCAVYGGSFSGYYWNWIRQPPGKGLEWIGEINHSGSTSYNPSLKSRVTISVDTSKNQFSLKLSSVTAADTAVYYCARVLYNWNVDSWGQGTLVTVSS VL: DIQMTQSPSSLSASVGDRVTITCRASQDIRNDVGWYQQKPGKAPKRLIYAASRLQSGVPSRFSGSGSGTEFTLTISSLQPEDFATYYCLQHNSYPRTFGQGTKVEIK please.
4190
